Hey, just so you know, these numbers are from ChEMBL document CHEMBL3988442.

# target-under-test: AMP-activated protein kinase, AMPK (Homo sapiens) (UniProt P54646+O43741+P54619+Q9UGJ0+Q9Y478+Q13131+Q9UGI9)
# assay-name: AMP-dependent Kinase enzyme assay. An in vitro enzyme assay that detects ADP turnover that is directly proportional to AMPK activity. This uses naive AMPK that is activated during the assay with MK-8722
# Assay type: functional
# Parameters: scale not given: direction of the effect not stated beside the values
# run-parameters: 30 µM

- compound: "COc1cccc(CNC(CN2CCN(C)CC2)c2ccccc2)c1 (centres undefined)"
  unit-name: "%"
  Percent Effect: -4.3
- compound: "Cc1nccn1-c1cc(CNC(=O)CCC2CCCO2)ccn1 (centres undefined)"
  unit-name: "%"
  Percent Effect: 1.23
- compound: "COCCCC1CCCN(C(=O)CCc2cc(O)no2)C1 (centres undefined)"
  unit-name: "%"
  Percent Effect: -6.36
- compound: "CC(C)Oc1cccc(C(=O)C2CCCN(C(=O)c3ncn[nH]3)C2)c1 (centres undefined)"
  unit-name: "%"
  Percent Effect: -3.49
- compound: "COc1ccc(CN(C)C(=O)NCc2c(C)cc(C)[nH]c2=O)cc1"
  unit-name: "%"
  Percent Effect: -2.27
- compound: "O=C(CN1CCC(c2ccnn2CCO)CC1)NCC1CC1"
  unit-name: "%"
  Percent Effect: -5.47
- compound: "Cc1cc(C(=O)N2CC[C@@H]3CN(S(C)(=O)=O)CCO[C@@H]3C2)c(C)o1"
  unit-name: "%"
  Percent Effect: 1.13
- compound: "O=C(C[C@@H]1COC[C@H]2CN(Cc3ccncc3)C[C@@H]12)N1CCOCC1"
  unit-name: "%"
  Percent Effect: -1.49
- compound: "CN1CCOC(CNCCc2ccccn2)C1 (centres undefined)"
  unit-name: "%"
  Percent Effect: -8.39
- compound: "CCCN(CCO)C(=O)C1CCC(=O)N(CCc2ccc(Cl)cc2)C1 (centres undefined)"
  unit-name: "%"
  Percent Effect: 1.97
- compound: "CC(NC(=O)N(C)Cc1ccncc1)c1nncn1C (centres undefined)"
  unit-name: "%"
  Percent Effect: 3.42
- compound: "Cc1cc(CN2CCOC(CN(C)c3cccnn3)C2)no1 (centres undefined)"
  unit-name: "%"
  Percent Effect: 18.6
- compound: "CCN1CCC(NC(=O)CN2CCc3c(ncn3C)C2)CC1"
  unit-name: "%"
  Percent Effect: -3.84
- compound: "c1cnc(-c2nc(CN3CCOC(Cn4cncn4)C3)cs2)nc1 (centres undefined)"
  unit-name: "%"
  Percent Effect: -7.99

----------
Percent Effect values, listed per item
# target-under-test: Chromo domain-containing protein 1 (Saccharomyces cerevisiae (strain ATCC 204508 / S288c) (Baker's yeast))
# assay-name: ScCHD-1 Enzyme Inhibition Assay; further: in the data most compounds retested in dose-response had high values
# Format: functional
# Parameters: scale not given: direction of the effect not stated beside the values
# run-parameters: 30 µM
value-kind: Percent Effect (%)

- compound: "CC(NC(=O)CSCC#N)c1ccccc1 (configuration not stated)"
  value-reported: -11.2
- compound: "CSCc1cccc(S(=O)(=O)NCCCn2ccnc2)c1"
  value-reported: -1.53
- compound: "CCc1nc(N)sc1C(=O)N1CCCC(CCc2ccccc2C)C1 (configuration not stated)"
  value-reported: -1.19
- compound: "Cc1cccnc1CN(C)CC1(O)CCCN(CC2CCCCC2)C1=O (configuration not stated)"
  value-reported: -2.65
- compound: "c1ccc(-n2ncc(CNC3CCc4ncnn4C3)n2)cc1 (configuration not stated)"
  value-reported: 1.52
- compound: "Cc1cc(C(=O)NCc2ccccn2)no1"
  value-reported: 0.179
- compound: "Cc1nn(C)c(C)c1NC(=O)CCn1ncc2c(C)cccc21"
  value-reported: 41.5
- compound: "O=C([C@H]1C[C@H]2OCC[C@H]2N(C(=O)c2ccncc2)C1)N1CCCCO1"
  value-reported: -6.72
- compound: "O=C(CCn1cccn1)N1C[C@@H]2CC[C@H](C1)N(Cc1ccccn1)C2=O"
  value-reported: -3.35
- compound: "COc1ccccc1OC1CCN(Cc2cnc(N(C)C)nc2)CC1"
  value-reported: -4
- compound: "CCN1CC2(CC1=O)CN(Cc1cccs1)CCN(C(=O)C(C)C)C2 (configuration not stated)"
  value-reported: 4.59
- compound: "Cc1ccc(-c2cc(CN3CCCC(Cn4cncn4)C3)on2)cc1 (configuration not stated)"
  value-reported: -3.73
- compound: "CCc1nnc(CN2CCN(C(=O)c3ccccn3)CC2)o1"
  value-reported: -20.1
- compound: "COc1cc2nc(C)n(CC(=O)O)c(=O)c2cc1OC"
  value-reported: -7.94
- compound: "Cc1occc1C(=O)N1CCC2(CC1)CC(c1cccnc1)C(=O)N2C (configuration not stated)"
  value-reported: -5.44
- compound: "CCCc1noc(CN2CCCC2c2c(C)nn(C)c2OC)n1 (configuration not stated)"
  value-reported: -6.05
- compound: "CC(Cn1cccn1)NC(=O)CCc1ccc(S(N)(=O)=O)cc1 (configuration not stated)"
  value-reported: -9.46

----------
# target-under-test: Tyrosyl-tRNA synthetase, putative (Trypanosoma cruzi (strain CL Brener))
# assay-name: Trypanosoma cruzi tyrosyl tRNA synthetase (TcYRS) SOP
# Type: functional
# Set-up: scale not given: direction of the effect not stated beside the values
# run-parameters: 30 µM
Percent Effect values, listed per item

- molecule: "Cc1cc(C)c(CNC(=O)N(C)CC2CCCCO2)c(=O)[nH]1 (stereo not given)"
  Percent Effect [%]: 9.76
- molecule: "CCN(Cc1ccc2c(c1)OCO2)C(=O)CCc1c(C)nc(C)[nH]c1=O"
  Percent Effect [%]: 9.76
- molecule: "Cc1nnc(C(C)NCC2(c3c(F)cccc3F)CCCC2)o1 (stereo not given)"
  Percent Effect [%]: 9.76
- molecule: "Cc1cc(C)n(CC2CCCN2C(=O)c2ccc3[nH]nnc3c2)n1 (stereo not given)"
  Percent Effect [%]: 10
- molecule: "CN(Cc1ccco1)C[C@H]1OC[C@@H]2CCN(Cc3cccnc3)C[C@@H]21"
  Percent Effect [%]: 10

----------
# target-under-test: Proteasome subunit beta (Trypanosoma cruzi) (UniProt O96673)
# Sequence (O96673 as listed by the source): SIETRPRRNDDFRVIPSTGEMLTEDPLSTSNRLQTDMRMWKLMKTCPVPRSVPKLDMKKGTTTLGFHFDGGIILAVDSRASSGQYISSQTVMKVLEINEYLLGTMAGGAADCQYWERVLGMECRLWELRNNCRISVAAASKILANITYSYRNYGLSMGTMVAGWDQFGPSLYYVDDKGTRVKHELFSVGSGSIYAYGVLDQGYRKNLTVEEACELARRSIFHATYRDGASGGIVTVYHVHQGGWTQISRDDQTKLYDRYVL
# assay-name: Trypanosoma cruzi proteasome chymotrypsin-like activity (TcProtChymo) assay. Further: in the data most compounds retested in dose-response had high values.
# Assay type: functional
# Design: scale not given: direction of the effect not stated beside the values
# run-parameters: 9.37 µM
Percent Effect values, listed per item

- molecule: "CC(CCc1ccccc1)NC(=O)Nc1cnn(CC(N)=O)c1 (stereo not drawn)"
  unit-name: "%"
  Percent Effect: 17.8
- molecule: "Cc1[nH]ncc1C(=O)N1CCCC(n2cncn2)C1 (stereo not drawn)"
  unit-name: "%"
  Percent Effect: 4.63
- molecule: "Cc1csc(N2CCN(C(=O)CCc3nccs3)CC2)n1"
  unit-name: "%"
  Percent Effect: 5.59

----------
Percent Effect values, listed per item
# target-under-test: Chromo domain-containing protein 1 (Saccharomyces cerevisiae (strain ATCC 204508 / S288c) (Baker's yeast)) (UniProt P32657)
# Sequence (P32657 whole entry, the tested form may be a part): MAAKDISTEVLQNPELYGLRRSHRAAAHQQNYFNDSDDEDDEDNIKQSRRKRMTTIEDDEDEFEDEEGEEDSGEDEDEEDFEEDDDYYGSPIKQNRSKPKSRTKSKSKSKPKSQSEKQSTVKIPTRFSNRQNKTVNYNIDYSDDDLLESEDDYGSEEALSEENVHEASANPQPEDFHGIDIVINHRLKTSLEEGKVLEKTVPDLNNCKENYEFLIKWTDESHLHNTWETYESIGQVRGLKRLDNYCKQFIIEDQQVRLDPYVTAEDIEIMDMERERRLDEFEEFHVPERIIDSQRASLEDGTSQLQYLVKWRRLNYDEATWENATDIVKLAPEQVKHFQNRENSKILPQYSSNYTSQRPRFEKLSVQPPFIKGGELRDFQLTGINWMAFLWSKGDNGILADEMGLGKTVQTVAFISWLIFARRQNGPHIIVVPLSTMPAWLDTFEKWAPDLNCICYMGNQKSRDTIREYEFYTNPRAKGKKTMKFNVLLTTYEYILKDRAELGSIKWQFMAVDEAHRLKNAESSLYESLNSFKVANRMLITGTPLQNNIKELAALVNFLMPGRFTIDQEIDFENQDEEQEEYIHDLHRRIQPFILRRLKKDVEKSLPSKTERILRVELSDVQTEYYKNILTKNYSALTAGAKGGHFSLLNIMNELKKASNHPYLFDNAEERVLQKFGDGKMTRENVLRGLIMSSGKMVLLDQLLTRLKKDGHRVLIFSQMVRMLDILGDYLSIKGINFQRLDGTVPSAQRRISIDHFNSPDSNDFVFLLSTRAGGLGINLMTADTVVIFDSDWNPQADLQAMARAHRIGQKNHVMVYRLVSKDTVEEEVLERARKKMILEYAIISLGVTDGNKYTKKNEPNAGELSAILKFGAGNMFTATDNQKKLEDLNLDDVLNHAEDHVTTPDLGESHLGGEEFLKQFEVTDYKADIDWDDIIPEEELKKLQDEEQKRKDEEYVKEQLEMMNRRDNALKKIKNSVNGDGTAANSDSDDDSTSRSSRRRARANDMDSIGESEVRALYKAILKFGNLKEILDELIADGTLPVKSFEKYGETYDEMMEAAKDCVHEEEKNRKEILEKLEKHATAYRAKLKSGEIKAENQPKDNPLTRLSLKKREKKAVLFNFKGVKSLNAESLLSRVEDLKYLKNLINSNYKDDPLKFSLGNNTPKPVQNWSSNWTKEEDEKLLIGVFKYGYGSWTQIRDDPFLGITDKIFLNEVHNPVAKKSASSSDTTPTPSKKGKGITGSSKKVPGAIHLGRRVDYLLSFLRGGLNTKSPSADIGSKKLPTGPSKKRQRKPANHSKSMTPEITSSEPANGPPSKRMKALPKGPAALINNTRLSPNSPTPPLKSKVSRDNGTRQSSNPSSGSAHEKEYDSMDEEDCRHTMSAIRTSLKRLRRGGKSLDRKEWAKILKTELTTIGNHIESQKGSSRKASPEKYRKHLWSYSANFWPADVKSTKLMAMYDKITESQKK
# assay-name: ScCHD-1 Enzyme Inhibition Assay; further: in the data most compounds retested in dose-response had high values
# Format: functional
# Parameters: scale not given: direction of the effect not stated beside the values
# run-parameters: 30 µM
value-kind: Percent Effect

- molecule: "Cc1csc(Nc2cc(C3CCCCN3C)nc(C)n2)n1 (centres undefined)"
  value-reported: "-0.0696%"
- molecule: "O=S(=O)(CCNC1CCc2ncnn2C1)c1ccccc1 (centres undefined)"
  value-reported: "5.51%"
- molecule: "COc1cc2cc(C(=O)N[C@@H](C)C(=O)O)n(C)c2c(OC)c1OC"
  value-reported: "-9.47%"
- molecule: "N#Cc1c(F)cccc1N1CCN(S(=O)(=O)c2cccs2)CC1"
  value-reported: "48.5%"
- molecule: "CC1CN(C)c2ccccc2CN1C(=O)CSc1ccncc1 (centres undefined)"
  value-reported: "-6.19%"
- molecule: "Cc1ccc(-c2nc(CN3CCN(S(=O)(=O)N(C)C)CC3)cs2)o1"
  value-reported: "-19.4%"
- molecule: "CCOC(=O)[C@]12CCCN(Cc3nccs3)C[C@H]1CN(CCN(C)C)C2"
  value-reported: "-10.9%"
- molecule: "CCC(=O)N1CCCC(c2cc(Nc3ncccn3)nc(C)n2)C1 (centres undefined)"
  value-reported: "-6.06%"
- molecule: "Cc1cc(CN(C)C(=O)c2ccc(F)cc2Br)no1"
  value-reported: "-3.45%"
- molecule: "Cc1nn(C)c(C)c1C(C)NC(=O)Nc1cccnc1N1CCCC1 (centres undefined)"
  value-reported: "-0.951%"
- molecule: "CCc1ccc(O)c(C(=O)NC2CCN(S(=O)(=O)CC)CC2)c1"
  value-reported: "-10.9%"
- molecule: "CC(C)(C)c1cn2nc(N3CCCC3Cn3cncn3)sc2n1 (centres undefined)"
  value-reported: "-6.04%"
- molecule: "O=C(CO)N1CCc2onc(Cn3cccn3)c2C1"
  value-reported: "0.404%"
- molecule: "COc1cccc(C2CC(=O)Nc3nc(N)sc32)c1OC (centres undefined)"
  value-reported: "-8.65%"
- molecule: "COc1ccc(CN2CC[C@H]3[C@H]2CCN3C(=O)c2cnn(C)c2)cc1"
  value-reported: "-5.75%"
- molecule: "COCCN1C[C@@H]2CN(c3ncccn3)C[C@@H]2C1=O"
  value-reported: "474%"
- molecule: "COc1ccc2c(c1)OCC(CNC(=O)c1ccc(=O)n(C)c1)C2 (centres undefined)"
  value-reported: "0.784%"
- molecule: "Cc1cnc(N2CC3(CCN(C(=O)c4ccoc4)C3)C2)nc1"
  value-reported: "-4.73%"
- molecule: "CC(C)(C)c1cn2nc(N3CCOC(Cn4cncn4)C3)sc2n1 (centres undefined)"
  value-reported: "-5.11%"
